Target: CDK6/D3 (Homo sapiens (Human))
Sequence (Q00534 whole entry, one chain of several): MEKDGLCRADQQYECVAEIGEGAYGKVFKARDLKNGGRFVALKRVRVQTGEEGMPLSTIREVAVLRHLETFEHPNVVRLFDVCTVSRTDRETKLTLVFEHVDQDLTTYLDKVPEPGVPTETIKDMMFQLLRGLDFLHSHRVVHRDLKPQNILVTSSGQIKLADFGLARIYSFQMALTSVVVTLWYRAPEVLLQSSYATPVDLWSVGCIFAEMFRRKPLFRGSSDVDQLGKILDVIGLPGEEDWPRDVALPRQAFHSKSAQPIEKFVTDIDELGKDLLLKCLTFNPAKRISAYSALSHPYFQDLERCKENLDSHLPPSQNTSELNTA
Assay: CDKs inhibition assay (ADP-Glo Kinase Assay), CDK6
pIC50: −log10 of the molar value.
OUTCOME_MEASURE: pIC50

A selection of reference data follows.
CC1CN(c2ccc(Nc3ncc(F)c(-c4cc(F)c5nc6n(c5c4)C(C)(C)CC6)n3)nc2)CC(C)N1 (centres unmarked) [Example 74] : 9.22
CC1CCc2nc3c(F)cc(-c4nc(Nc5ccc(C6CCNCC6)cn5)ncc4F)cc3n21 (centres unmarked) [Example 61] : 7.10
CCC1CCc2nc3c(F)cc(-c4nc(Nc5ccc(N6CCNCC6)cn5)ncc4F)cc3n21 (centres unmarked) [Example 54] : 8.02
Cc1nc(Nc2ncc(F)c(-c3cc(F)c4nc5n(c4c3)C(C)CC5)n2)ccc1CC1CCNCC1 (centres unmarked) [Example 62] : 7.47
CCN1CCC(c2ccc(Nc3ncc(F)c(-c4cc(F)c5nc6n(c5c4)C(C)CC6)n3)nc2)CC1 (centres unmarked) [Example 69] : 7.61

P = Cc1nc(Nc2ncc(F)c(-c3cc(F)c4nc5n(c4c3)C(C)(C)CC5)n2)ccc1CC1CCNCC1 [Example 30]
Q = CC1(C)CCc2nc3c(F)cc(-c4ccnc(Nc5ccc(N6CCNCC6)cn5)n4)cc3n21 [Example 23]
Q: // task: argmin of pIC50 over [ P , Q ] Which one? Tell me its label.
Ans: Q

* * *

Molecular target: CDK4/D3 (Homo sapiens (Human))
Sequence (P11802 whole entry): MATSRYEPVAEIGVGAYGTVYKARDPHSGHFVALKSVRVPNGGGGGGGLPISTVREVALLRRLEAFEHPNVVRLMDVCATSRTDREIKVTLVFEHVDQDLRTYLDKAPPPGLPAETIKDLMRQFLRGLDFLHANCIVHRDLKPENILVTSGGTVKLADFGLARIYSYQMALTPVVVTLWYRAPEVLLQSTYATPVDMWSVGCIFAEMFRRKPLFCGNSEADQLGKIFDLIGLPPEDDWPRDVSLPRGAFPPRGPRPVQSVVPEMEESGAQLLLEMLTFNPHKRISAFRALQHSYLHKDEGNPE
Sequence (P30281 whole entry partner): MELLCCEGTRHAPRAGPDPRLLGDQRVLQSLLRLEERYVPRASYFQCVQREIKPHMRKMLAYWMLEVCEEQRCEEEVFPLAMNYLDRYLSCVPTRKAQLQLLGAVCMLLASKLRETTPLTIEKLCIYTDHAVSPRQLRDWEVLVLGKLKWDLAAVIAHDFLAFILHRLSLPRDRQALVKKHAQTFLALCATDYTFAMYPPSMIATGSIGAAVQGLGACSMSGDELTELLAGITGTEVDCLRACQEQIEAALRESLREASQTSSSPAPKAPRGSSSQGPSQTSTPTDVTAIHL
Experiment: CDKs inhibition assay (ADP-Glo Kinase Assay), CDK4
OUTCOME_MEASURE: IC50 (nM)

A selection of reference data follows.
CC1Cc2nc3c(F)cc(-c4nc(Nc5ccc(N6CCNCC6)cn5)ncc4F)cc3n2C1 (centres unmarked) [Example 50] : 17.6
CCC1Cc2nc3c(F)cc(-c4nc(Nc5ccc(N6CCNCC6)cn5)ncc4F)cc3n2C1 (centres unmarked) [Example 52] : 60.7
CCN1CCC(Oc2ccc(Nc3ncc(F)c(-c4cc(F)c5nc6n(c5c4)C(C)(C)CC6)n3)nc2)CC1 [Example 33] : 3.2
CC1CCc2nc3c(F)cc(-c4nc(Nc5ccc6c(n5)CCN(C(=O)CO)C6)ncc4F)cc3n21 (centres unmarked) [Example 58] : 28
CCC1CCc2nc3c(F)cc(-c4nc(Nc5ccc(N6CCNCC6)cn5)ncc4F)cc3n21 (centres unmarked) [Example 54] : 19
C[C@H]1CN(Cc2ccc(Nc3ncc(F)c(-c4cc(F)c5nc6n(c5c4)C(C)(C)CC6)n3)nc2)CCN1C [Example 47] : 2.4

a = Cc1nc(Nc2ncc(F)c(-c3cc(F)c4nc5n(c4c3)C(C)CC5)n2)ccc1CC1CCNCC1 (centres unmarked) [Example 62]
b = CCN1CCN(C(=O)c2ccc(Nc3ncc(F)c(-c4cc(F)c5nc6n(c5c4)C(C)(C)CC6)n3)nc2)CC1 [Example 32]
Q: // max by IC50 over [ a , b ] Which one? Tell me its label.
Ans: b

* * *

Target: CDK4/D3 (Homo sapiens (Human))
Assay: CDKs inhibition assay (ADP-Glo Kinase Assay), CDK4
Settings: smaller value = better selectivity for CDK4
OUTCOME_MEASURE: Ratio IC50 (CDK4)/IC50 (CDK1)

C[C@H]1CN(Cc2ccc(Nc3ncc(F)c(-c4cc(F)c5nc6n(c5c4)C(C)(C)CC6)n3)nc2)CCN1C [Example 47] : 0.003

a = Cc1nc(Nc2ncc(F)c(-c3cc(F)c4nc5n(c4c3)C(C)(C)CC5)n2)ccc1CC1CCNCC1 [Example 30]
b = CC1CN(c2ccc(Nc3ncc(F)c(-c4cc(F)c5nc6n(c5c4)C(C)(C)CC6)n3)nc2)CC(C)N1 (stereo not shown) [Example 74]
c = CN1CCN(c2ccc(Nc3ncc(F)c(-c4cc(F)c5nc6n(c5c4)C(C)(C)CC6)n3)nc2)CC1 [Example 43]
Q: # ascending order, key=Ratio IC50 (CDK4)/IC50 (CDK1) Rank them, then answer with their labels in that order.
Ans: a, b, c
(a: 0.002, b: 0.003, c: 0.018)
